Where do these numbers come from? They come from patent US9629848B2.

- Tested on: BDC 12-4.1 anti-B:9-23 T cell hybridoma
- RUN_DESCRIPTION: T cell stimulation assay, B:9-23 activated TCR BDC 12-4.1
- Assay type: cell-based
- TEST_PARAMETERS: Mus musculus, B:9-23 activated TCR, read-out: IC50 for anti-B:9-23 TCRs BDC 12-4.1
Provide the reported IC50 of each item.
Reply with the number, then its unit.

## Input // fetch IC50 given entry `C1CN2CN1CN1CCN(C1)C2`
## Output 2.8 µM

## Input // fetch IC50 given entry `NC1(N)Sc2nc3ccccc3nc2S1`
## Output 14.8 µM

## Input // fetch IC50 given entry `Nc1nc(N)c2nn[nH]c2n1`
## Output 24 µM

* * *

- SYSTEM_TESTED: DQ8 (Homo sapiens, UniProt P01909+P01920, A209T/A45G/C70Q/D89A/DUP78-78/E183D/E77G/F237L/G63E/H199R/I129T/K197E/L178F/L74F/L98V/Q57E/Q76R/S185I/S97I/T217I/T49S/V73L/Y58L)
- RUN_DESCRIPTION: Competitive binding assay B:9-23 to DQ8
pIC50: −log10 of the molar value. Non-standard residues stand in square brackets, D forms with d. Residues, ends and D or L forms follow the SMILES beside them. ξ: configuration not given here. ξY = NC(Cc1ccc(O)cc1)C(=O)O; Nva = CCC[CH](N)C(=O)O
MEASURE_NAME: pIC50

## Input // fetch pIC50 given entry COC(=O)C(C=C(Cl)Cl)N1CCNCC1 (stereo not shown)
## Output < 4.00

## Input // fetch pIC50 given entry `CCCCN(C)C12CN3CN(CN(C3)C1)C2`
## Output < 4.00

## Input // fetch pIC50 given entry `[H]/N=C(\NN(O)O)NS(=O)(=O)c1ccccc1`
## Output < 4.00

## Input // fetch pIC50 given entry `[H]/N=C(/Nc1ccc(Cl)cc1)NN(O)O`
## Output < 4.00

## Input // fetch pIC50 given entry CC1CNC2C(=O)NC(=O)NC2N1 (stereo not shown)
## Output < 4.00

## Input // fetch pIC50 given entry `CC(=O)N1C(=O)C2(NCCCN2)c2ccccc21`
## Output > 4.00

## Input // fetch pIC50 given entry `[H]/N=C(/NCc1ccccc1)NN(O)O`
## Output < 4.00

## Input // fetch pIC50 given entry CCCC(N)C(=O)NC(C(=O)O)C(C)C (stereo not shown) [p4:20] (H-[Nva]-Val-OH; configuration not given here)
## Output < 4.00

## Input // fetch pIC50 given entry `[H]/N=C(\NCCOC)NN(O)O`
## Output < 4.00

## Input // fetch pIC50 given entry `N=C(N)NC(=N)Nc1ccccc1Cl`
## Output < 4.00

## Input // fetch pIC50 given entry Oc1ncnc2[nH]c(C(O)c3ccccc3)nc12 (stereo not shown)
## Output < 4.00

## Input // fetch pIC50 given entry CC1C(c2ccccc2)OCN1C (stereo not shown)
## Output > 4.00

## Input // fetch pIC50 given entry O=[PH](O)C(O)c1ccccc1 (stereo not shown)
## Output < 4.00

## Input // fetch pIC50 given entry `NC(=O)N/N=C/Cn1cc([N+](=O)[O-])c(=O)[nH]c1=O`
## Output < 4.00

## Input // fetch pIC50 given entry NCC(=O)NC(Cc1ccc(O)cc1)C(=O)O (stereo not shown) [p6:24] (H-Gly-[ξY]-OH)
## Output < 4.00

## Input // fetch pIC50 given entry `CN(C)C(Cl)(N(C)C)C(Cl)(N(C)C)N(C)C`
## Output < 4.00

## Input // fetch pIC50 given entry `C1CN2CN3CCN(CN1C3)C2`
## Output 11.35

## Input // fetch pIC50 given entry NC(CCCC(N)C(=O)O)C(=O)O (stereo not shown)
## Output < 4.00

## Input // fetch pIC50 given entry `[H]/N=C(\NCCCCl)NN(O)O`
## Output < 4.00

## Input // fetch pIC50 given entry `[H]/N=C(\NCCN(C)C)NN(O)O`
## Output > 4.00

## Input // fetch pIC50 given entry `NCc1c(Cl)c(Cl)c(Cl)c(CN)c1Cl`
## Output < 4.00

## Input // fetch pIC50 given entry `Clc1ccc(Cl)c(OCC2=NCCN2)c1`
## Output < 4.00
